meta.source: the kinase profiling compilation of Christmann-Franck et al. (2016)

# tested_on: UniProt:P54646
# Sequence (P54646 whole entry, looked up): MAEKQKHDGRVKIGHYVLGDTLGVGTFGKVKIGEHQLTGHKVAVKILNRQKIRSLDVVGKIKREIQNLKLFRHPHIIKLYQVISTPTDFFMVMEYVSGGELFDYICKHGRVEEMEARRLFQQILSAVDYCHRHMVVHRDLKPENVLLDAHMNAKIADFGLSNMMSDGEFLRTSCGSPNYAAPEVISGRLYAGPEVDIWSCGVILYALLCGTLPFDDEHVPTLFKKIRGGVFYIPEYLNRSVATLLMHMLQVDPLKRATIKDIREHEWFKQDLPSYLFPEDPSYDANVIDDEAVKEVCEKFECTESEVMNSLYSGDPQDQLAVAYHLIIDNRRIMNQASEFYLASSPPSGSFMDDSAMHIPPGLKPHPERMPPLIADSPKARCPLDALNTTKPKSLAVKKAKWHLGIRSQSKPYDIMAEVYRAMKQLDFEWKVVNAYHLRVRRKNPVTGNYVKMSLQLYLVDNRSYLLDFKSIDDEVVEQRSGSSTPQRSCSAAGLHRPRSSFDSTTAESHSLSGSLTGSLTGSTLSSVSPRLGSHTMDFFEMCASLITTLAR
# protocol_text: KINOMEscan competition binding
# test_conditions: compound 10.0 µM
readout: kinase still bound, per cent of control (%)

| compound | value_unit | observed_value |
| --- | --- | --- |
| O=C(O)c1ccc(Nc2ncc3c(n2)-c2ccc(Cl)cc2C(c2c(F)cccc2F)=NC3)cc1 | % | 67 |
| Cc1ccc(NC(=O)c2cccc(C(C)(C)C#N)c2)cc1Nc1ccc2ncn(C)c(=O)c2c1 | % | 100 |
| O=C(NOC[C@H](O)CO)c1ccc(F)c(F)c1Nc1ccc(I)cc1F | % | 97 |
| COc1cc(C(=O)NC2CCN(C)CC2)ccc1Nc1ncc2c(n1)N(C1CCCC1)C(C)CC(=O)N2C (stereo not given) | % | 100 |
| CCN1CCN(Cc2ccc(Nc3ncc4c(n3)N(C)c3ccccc3C(=O)N4C)cc2C(F)(F)F)CC1 | % | 5 |
| COc1cc(N2CCN(C)CC2)ccc1Nc1nc(N)c(C(=O)c2c(Cl)cccc2Cl)s1 | % | 68 |
| C=CC(=O)Nc1cccc(Oc2nc(Nc3ccc(N4CCN(C)CC4)cc3OC)ncc2Cl)c1 | % | 100 |
| Cc1ccc2nc(NCCN)c3ncc(C)n3c2c1 | % | 100 |
| Cc1ccc(C(=O)Nc2cccc(C(F)(F)F)c2)cc1Nc1cncc(C(N)=O)c1 | % | 100 |
| C=CC(=O)Nc1cc(NC(=O)c2ccc(C)c(NC(=O)c3ccno3)c2)cc(C(F)(F)F)c1 | % | 100 |
| COc1cc(C(=O)NC2CCN(C)CC2)ccc1Nc1ncc2c(n1)N(C1CCCC1)CCC(=O)N2C(C)C | % | 100 |
| O=C1Nc2ccc(I)cc2/C1=C/c1cc(Br)c(O)c(Br)c1 | % | 100 |
| C=CC(=O)Nc1cccc(Nc2nc(N[C@H]3CC[C@H](N(C)C)CC3)nc3c2ncn3C(C)C)c1 | % | 100 |
| C[C@@H](Oc1cc(-n2cnc3ccc(CN4CCN(C)CC4)cc32)sc1C(N)=O)c1ccccc1C(F)(F)F | % | 80 |
| O=C(NC1CC1)c1cccc(-c2ccc3c(NC(=O)C4CC4)n[nH]c3c2)c1 | % | 45 |
| CCC(=O)N1CCN(c2ccc(-n3c(=O)ccc4cnc5ccc(-c6cnc7ccccc7c6)cc5c43)cc2C(F)(F)F)CC1 | % | 74 |
| CC[C@@H]1C(=O)N(C)c2cnc(Nc3ccc(C(=O)NC4CCN(C)CC4)cc3OC)nc2N1C1CCCC1 | % | 100 |
| CCCS(=O)(=O)Nc1ccc(F)c(C(=O)c2c[nH]c3ncc(-c4ccc(Cl)cc4)cc23)c1F | % | 63 |
| OCCCNc1cc(-c2ccnc(Nc3cccc(Cl)c3)n2)ccn1 | % | 100 |
| Cc1cc([C@@H](C)Nc2ccccc2C(=O)O)c2nc(N3CCOCC3)cc(=O)n2c1 | % | 88 |
